Each item that follows carries a reported EC50.
# Experimental system: UniProt:P31424
# Sequence (P31424 whole entry): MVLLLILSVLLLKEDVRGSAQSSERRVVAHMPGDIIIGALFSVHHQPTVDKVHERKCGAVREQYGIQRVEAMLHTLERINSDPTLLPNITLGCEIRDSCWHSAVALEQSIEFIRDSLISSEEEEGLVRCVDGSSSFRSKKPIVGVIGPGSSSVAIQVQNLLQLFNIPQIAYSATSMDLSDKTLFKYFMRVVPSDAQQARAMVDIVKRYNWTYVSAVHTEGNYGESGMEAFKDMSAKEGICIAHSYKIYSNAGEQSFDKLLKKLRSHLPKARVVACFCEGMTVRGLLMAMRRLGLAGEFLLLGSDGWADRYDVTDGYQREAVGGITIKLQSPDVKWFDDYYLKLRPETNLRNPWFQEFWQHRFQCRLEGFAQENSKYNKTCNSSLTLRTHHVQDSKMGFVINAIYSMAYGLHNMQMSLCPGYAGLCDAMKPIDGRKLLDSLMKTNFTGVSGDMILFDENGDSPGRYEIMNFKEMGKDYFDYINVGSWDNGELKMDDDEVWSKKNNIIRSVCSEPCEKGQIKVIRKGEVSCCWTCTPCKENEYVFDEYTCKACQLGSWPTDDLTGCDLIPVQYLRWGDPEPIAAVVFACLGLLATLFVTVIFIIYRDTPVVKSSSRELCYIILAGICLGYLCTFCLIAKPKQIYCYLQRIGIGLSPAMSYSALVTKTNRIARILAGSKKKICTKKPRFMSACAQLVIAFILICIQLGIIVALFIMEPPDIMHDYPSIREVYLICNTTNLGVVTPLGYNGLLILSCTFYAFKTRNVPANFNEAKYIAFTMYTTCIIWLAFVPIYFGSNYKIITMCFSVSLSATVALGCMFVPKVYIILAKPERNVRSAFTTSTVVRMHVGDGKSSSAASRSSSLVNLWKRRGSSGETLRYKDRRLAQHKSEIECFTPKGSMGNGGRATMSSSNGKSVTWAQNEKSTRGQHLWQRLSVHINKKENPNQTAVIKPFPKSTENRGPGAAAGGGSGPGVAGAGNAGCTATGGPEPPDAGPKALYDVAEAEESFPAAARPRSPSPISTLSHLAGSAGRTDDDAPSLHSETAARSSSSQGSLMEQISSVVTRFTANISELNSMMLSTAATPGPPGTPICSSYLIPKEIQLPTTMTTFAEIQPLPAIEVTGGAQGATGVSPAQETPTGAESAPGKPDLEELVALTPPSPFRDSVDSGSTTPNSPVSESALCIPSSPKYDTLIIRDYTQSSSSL
# Assay details: Modulation of rat mGlu5 receptor assessed as calcium mobilization by cell based fluorescence assay

Record excerpt, results attached:
COc1cccc(OCc2cc3n(n2)[C@H](C)CN(c2ccc(F)cc2)C3=O)n1 > 10 µM
C[C@@H]1CN(c2ccncc2)C(=O)c2cc(COc3ccc(F)cn3)nn21 > 30 µM

Now for the compound whose EC50 we want.
Sample C[C@@H]1CN(c2cc(F)ccc2C#N)C(=O)c2cc(COc3ccc(Cl)cn3)nn21 — what was its EC50?
> 30 µM

----------
# Experimental system: Metabotropic glutamate receptor 3 (Rattus norvegicus) (UniProt P31422)
# Sequence (P31422 23-879 limits assumed): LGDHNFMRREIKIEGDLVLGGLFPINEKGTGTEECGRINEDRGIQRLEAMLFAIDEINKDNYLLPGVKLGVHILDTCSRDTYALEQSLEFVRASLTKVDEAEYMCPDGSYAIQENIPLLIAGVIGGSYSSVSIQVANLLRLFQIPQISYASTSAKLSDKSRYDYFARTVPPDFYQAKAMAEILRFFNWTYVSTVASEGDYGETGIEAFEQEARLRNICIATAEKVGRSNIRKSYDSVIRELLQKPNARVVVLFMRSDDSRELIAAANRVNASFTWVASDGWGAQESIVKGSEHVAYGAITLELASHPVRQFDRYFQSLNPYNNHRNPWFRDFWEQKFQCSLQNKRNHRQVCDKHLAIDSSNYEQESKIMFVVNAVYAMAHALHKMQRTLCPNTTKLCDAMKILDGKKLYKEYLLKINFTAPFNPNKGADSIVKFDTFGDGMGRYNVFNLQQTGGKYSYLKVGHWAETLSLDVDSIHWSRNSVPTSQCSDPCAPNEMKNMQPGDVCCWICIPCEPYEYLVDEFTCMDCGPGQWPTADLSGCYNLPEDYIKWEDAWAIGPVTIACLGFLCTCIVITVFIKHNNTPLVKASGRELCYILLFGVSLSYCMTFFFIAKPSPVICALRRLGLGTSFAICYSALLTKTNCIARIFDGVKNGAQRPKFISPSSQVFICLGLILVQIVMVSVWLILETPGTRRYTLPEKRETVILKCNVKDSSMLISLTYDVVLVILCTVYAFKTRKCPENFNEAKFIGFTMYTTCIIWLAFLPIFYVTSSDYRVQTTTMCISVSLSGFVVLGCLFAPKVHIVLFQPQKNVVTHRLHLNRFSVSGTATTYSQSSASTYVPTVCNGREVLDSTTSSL
# Assay details: Negative allosteric modulation of rat mGlu3 receptor assessed as amplitude response at 30 uM relative to glutamate
Test readout: Activity
Hey, just the number and the unit after it is fine.

Look up Activity with Metabotropic glutamate receptor 3 (Rattus norvegicus) (UniProt P31422) for this molecule: COc1cccc(OCc2cc3n(n2)[C@H](C)CN(c2ccc(F)cc2)C3=O)c1
1.78%

Look up Activity with Metabotropic glutamate receptor 3 (Rattus norvegicus) (UniProt P31422) for this molecule: C[C@@H]1CN(c2c(F)cccc2F)C(=O)c2cc(COc3ccc(F)cn3)nn21
1.49%

Look up Activity with Metabotropic glutamate receptor 3 (Rattus norvegicus) (UniProt P31422) for this molecule: C[C@@H]1CN(c2ccc(F)cc2)C(=O)c2cc(COc3ccc(F)cc3)nn21
2.09%

Look up Activity with Metabotropic glutamate receptor 3 (Rattus norvegicus) (UniProt P31422) for this molecule: COc1cccc(OCc2cc3n(n2)[C@H](C)CN(c2ccc(F)cc2)C3=O)n1
1.94%

Look up Activity with Metabotropic glutamate receptor 3 (Rattus norvegicus) (UniProt P31422) for this molecule: C[C@@H]1CN(c2ccccc2F)C(=O)c2cc(COc3ccc(Cl)cn3)nn21
1.74%

Look up Activity with Metabotropic glutamate receptor 3 (Rattus norvegicus) (UniProt P31422) for this molecule: C[C@@H]1CN(c2ccc(F)cc2)C(=O)c2cc(COc3ccc(Cl)cn3)nn21
1.84%

Look up Activity with Metabotropic glutamate receptor 3 (Rattus norvegicus) (UniProt P31422) for this molecule: C[C@@H]1CN(c2ccc(F)cn2)C(=O)c2cc(COc3ccc(F)cn3)nn21
1.31%

Look up Activity with Metabotropic glutamate receptor 3 (Rattus norvegicus) (UniProt P31422) for this molecule: C[C@@H]1CN(c2ccc(F)cc2F)C(=O)c2cc(COc3ccc(Cl)cn3)nn21
1.34%

Measured values drawn from ChEMBL document CHEMBL3616441 for this set.
